System: ovarian cancer cell lines
Protocol details: Cell based assay, cell viability (CellTiter-Glo), ovarian cancer cell lines
Measurement conditions: Homo sapiens; OVCAR-3 cells
Recorded IC50 values for a group of molecules are listed next.

[
  {
    "Molecule": "CC(C)C(=O)c1c([S+]([O-])Cc2ccc(SC(F)(F)F)cc2)[nH]c2c(F)ccc(F)c2c1=O (centres unmarked) [Compound 85]",
    "IC50": "> 2 µM"
  },
  {
    "Molecule": "CC(=O)c1c([S+]([O-])Cc2ccc(C(=O)c3ccccc3)cc2)[nH]c2c(Br)ccc(Cl)c2c1=O (centres unmarked) [Compound 63]",
    "IC50": "> 2 µM"
  }
]

[in] Please give measured IC50 of the following entry: COc1cccc2[nH]c([S+]([O-])Cc3ccc(S(F)(F)(F)(F)F)cc3)c(C(C)=O)c(=O)c12 (centres unmarked) [Compound 93]
[out] > 2 µM

[in] Please give measured IC50 of the following entry: CSc1c(C(C)=O)c(=O)c2c(Cl)ccc(Br)c2n1C(C)=O [Compound 18]
[out] > 2 µM

----------
Test system: lung cancer cell lines (e.g. NCI-H23, NCI-H1229)
Protocol details: Cell based assay, cell viability (CellTiter-Glo), lung cancer cell lines
Measurement conditions: Homo sapiens; MRC-5 cells; 72 hours treatment; CellTiter-Glo; read-out: IC50
Assay readout: IC50

Please review the following examples before continuing.
[
  {
    "Molecule": "Cc1cc(C[S+]([O-])c2[nH]c3c(Br)ccc(Cl)c3c(=O)c2C(=O)C2CC2)no1 (stereo not shown)",
    "IC50": "1.81 µM"
  },
  {
    "Molecule": "CC(=O)c1c([S+]([O-])Cc2ccc([S+]([O-])C(F)(F)F)cc2)[nH]c2c(Br)ccc(Cl)c2c1=O (stereo not shown)",
    "IC50": "> 2 µM"
  },
  {
    "Molecule": "CC(=O)c1c([S+]([O-])C(C)c2ccccc2)[nH]c2c(Br)ccc(Cl)c2c1=O (stereo not shown)",
    "IC50": "> 2 µM"
  }
]

[in] Please give measured IC50 of the following entry: CC(=O)c1c([S+]([O-])Cc2c(F)c(F)c(F)c(F)c2F)[nH]c2c(Br)ccc(Cl)c2c1=O (stereo not shown)
[out] 1.5 µM

[in] Please give measured IC50 of the following entry: CC(=O)c1c([S+]([O-])Cc2ccc(C(=O)c3ccccc3)cc2)[nH]c2c(Br)ccc(Cl)c2c1=O (stereo not shown)
[out] > 2 µM

[in] Please give measured IC50 of the following entry: `CC(=O)c1c(SCc2cccc(C#N)c2)[nH]c2c(Br)ccc(Cl)c2c1=O`
[out] > 2 µM

[in] Please give measured IC50 of the following entry: CC(=O)c1c([S+]([O-])Cc2ccc(F)cc2F)[nH]c2c(Br)ccc(Cl)c2c1=O (stereo not shown)
[out] > 2 µM

----------
Recorded pIC50 values for a group of compounds are listed next.
Test system: lung cancer cell lines (e.g. NCI-H23, NCI-H1229)
Protocol details: Cell based assay, cell viability (CellTiter-Glo), lung cancer cell lines
Measurement conditions: Homo sapiens; NCI-H1299 cells; 72 hours treatment; CellTiter-Glo; read-out: IC50, lung cancer cell line NCI-H1299
pIC50: −log10 of the molar value.

[
  {
    "Compound": "CC(=O)c1c([S+]([O-])Cc2ccc(S(F)(F)(F)(F)F)cc2F)[nH]c2c(Br)ccc(Cl)c2c1=O (centres unmarked)",
    "Target": "lung cancer cell lines (e.g. NCI-H23, NCI-H1229)",
    "pIC50": 5.88
  },
  {
    "Compound": "CC(=O)c1c(SCc2cccc(C#N)c2)[nH]c2c(Br)ccc(Cl)c2c1=O",
    "Target": "lung cancer cell lines (e.g. NCI-H23, NCI-H1229)",
    "pIC50": "< 5.70"
  },
  {
    "Compound": "CC(=O)c1c([S+]([O-])Cc2ccc(C#N)cc2)[nH]c2c(Br)ccc(Cl)c2c1=O (centres unmarked)",
    "Target": "lung cancer cell lines (e.g. NCI-H23, NCI-H1229)",
    "pIC50": "< 5.70"
  },
  {
    "Compound": "CC(=O)c1c(SCc2cccc(F)c2)[nH]c2c(Br)ccc(Cl)c2c1=O",
    "Target": "lung cancer cell lines (e.g. NCI-H23, NCI-H1229)",
    "pIC50": "< 5.70"
  }
]

Please find the next compound below.
[in] Please give measured pIC50 of the following entry: `CC(=O)c1c(S)[nH]c2c(Br)ccc(Cl)c2c1=O`
[out] < 5.70

----------
Test system: lung cancer cell lines (e.g. NCI-H23, NCI-H1229)
Protocol details: Cell based assay, cell viability (CellTiter-Glo), lung cancer cell lines
Measurement conditions: Homo sapiens; A549 cells; 72 hours treatment; CellTiter-Glo; read-out: IC50, lung cancer cell line A549
pIC50: −log10 of the molar value.
Recorded pIC50 values for a group of molecules are listed next.

Please review the following examples before continuing.
[
  {
    "Molecule": "CC(=O)c1c([S+]([O-])Cc2cc(C)on2)[nH]c2c(F)ccc(F)c2c1=O (stereo not drawn)",
    "Assay readout": "pIC50",
    "Observed": "< 5.70"
  },
  {
    "Molecule": "CC(=O)c1c([S+]([O-])Cc2ccc(S(F)(F)(F)(F)F)cc2)[nH]c2c(Br)ccc(Cl)c2c1=O (stereo not drawn)",
    "Assay readout": "pIC50",
    "Observed": 5.86
  },
  {
    "Molecule": "COc1cccc2[nH]c([S+]([O-])Cc3cc(C)on3)c(C(C)=O)c(=O)c12 (stereo not drawn)",
    "Assay readout": "pIC50",
    "Observed": "< 5.70"
  },
  {
    "Molecule": "CC(=O)c1c(SCc2ccc(Cl)cc2)[nH]c2c(Br)ccc(Cl)c2c1=O",
    "Assay readout": "pIC50",
    "Observed": "< 5.70"
  },
  {
    "Molecule": "CC(=O)c1c([S+]([O-])Cc2cccc(S(F)(F)(F)(F)F)c2)[nH]c2c(Br)ccc(Cl)c2c1=O (stereo not drawn)",
    "Assay readout": "pIC50",
    "Observed": 5.74
  }
]

[in] Please give measured pIC50 of the following entry: Cc1cc(C[S+]([O-])c2[nH]c3c(Cl)ccc(Cl)c3c(=O)c2C(=O)C(C)C)no1 (stereo not drawn)
[out] 5.92

[in] Please give measured pIC50 of the following entry: `CSc1c(C(C)=O)c(=O)c2c(Cl)ccc(Br)c2n1S(=O)(=O)c1ccc(Cl)cc1`
[out] < 5.70

[in] Please give measured pIC50 of the following entry: CC(=O)c1c([S+](C)[O-])n(S(=O)(=O)C(F)(F)F)c2c(Br)ccc(Cl)c2c1=O (stereo not drawn)
[out] < 5.70

[in] Please give measured pIC50 of the following entry: `CC(=O)c1c(SCc2ccccc2)[nH]c2c(Br)ccc(Cl)c2c1=O`
[out] < 5.70

----------
System: pancreatic cancer cell lines (e.g. MIA PaCa-2)
Protocol details: Cell based assay, cell viability (CellTiter-Glo), pancreatic cancer cell lines
Measurement conditions: Homo sapiens, pancreatic cancer cell line MIA PaCa-2, 72 hours, read-out: IC50, MIA PaCa-2
pIC50: −log10 of the molar value.
Recorded pIC50 values for a group of molecules are listed next.

Please review the following examples before continuing.
[
  {
    "Molecule": "CC(=O)c1c(SCc2ccc(Cl)cc2)[nH]c2c(Br)ccc(Cl)c2c1=O [Compound 10]",
    "Observed": "< 5.70"
  },
  {
    "Molecule": "CC(=O)c1c([S+]([O-])Cc2cnc3[nH]ccc3c2)[nH]c2c(Br)ccc(Cl)c2c1=O (stereo not shown) [Compound 107]",
    "Observed": "< 5.70"
  },
  {
    "Molecule": "CC(=O)c1c([S+]([O-])Cc2c(F)c(F)c(F)c(F)c2F)[nH]c2c(Br)ccc(Cl)c2c1=O (stereo not shown) [Compound 78]",
    "Observed": 5.85
  },
  {
    "Molecule": "COc1ccccc1Sc1[nH]c2c(Br)ccc(Cl)c2c(=O)c1C(C)=O [Compound 14]",
    "Observed": "< 5.70"
  },
  {
    "Molecule": "CC(=O)c1c([S+](C)[O-])n(C(=O)c2ccc(Br)cc2)c2c(Br)ccc(Cl)c2c1=O (stereo not shown) [Compound 9]",
    "Observed": 5.99
  }
]

[in] Please give measured pIC50 of the following entry: CC(=O)c1c([S+](C)[O-])n(S(=O)(=O)c2ccc(C(C)(C)C)cc2)c2c(Br)ccc(Cl)c2c1=O (stereo not shown) [Compound 42]
[out] < 5.70

[in] Please give measured pIC50 of the following entry: CC(=O)c1c(S(C)(=O)=O)n(C(=O)c2ccc(Br)cc2)c2c(Br)ccc(Cl)c2c1=O [Compound 21]
[out] < 5.70

Data origin, for the record: patent US11464770B2
